Value source: patent US20100197714A1

# TARGET ENTITY: UniProt Q60492
# PROCEDURE TEXT: Sigma 1 (Version B) radioligand binding, [3H]-(+)-pentazocine, guinea pig brain preparation
# Design: the σ1-receptor preparation was prepared from guinea pig brain; from tissue; host or cells: guinea pig brain membrane homogenate
Please go through the items and note down their pKi.
Numbers only, as −log10 of the molar value.

Please state, for each entry, its recorded pKi.
1. COC1Cc2c(cnn2-c2ccccc2)C2(CCN(CCCc3ccccc3)CC2)O1 (centres unmarked)
2. CCCCN1CCC2(CC1)OC(OC)Cc1c2cnn1-c1ccccc1 (centres unmarked)
3. COC1Cc2c(cnn2-c2ccccc2)C2(CCN(CC3CCCCC3)CC2)O1 (centres unmarked)
4. C1=Cc2c(cnn2-c2ccccc2)C2(CCN(Cc3ccccc3)CC2)O1
5. CC(C)=CCN1CCC2(CC1)OCCc1c2cnn1-c1ccccc1

8.49
8.09
9.26
8.83
9.01

###

# TARGET ENTITY: σ2-receptor (Rattus norvegicus)
# Construct: the σ2-Receptorpreparation was prepared from rat liver; from tissue; host or cells: rat liver membrane homogenate
# Sequence (Q5U3Y7 1-176): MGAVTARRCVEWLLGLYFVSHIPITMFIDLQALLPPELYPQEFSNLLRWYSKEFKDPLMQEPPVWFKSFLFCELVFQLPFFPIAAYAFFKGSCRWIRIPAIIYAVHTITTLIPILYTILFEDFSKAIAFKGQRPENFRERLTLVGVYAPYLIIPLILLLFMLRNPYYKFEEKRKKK
# PROCEDURE TEXT: Sigma 2 (Version B) radioligand binding, [3H]-ditolylguanidine, rat liver preparation, σ1 sites masked with (+)-pentazocine
# REPORTED CONDITIONS: compound at 1 μM
OBSERVED PROPERTY: inhibition at 1 µM (%)
One number for each entry, in %.

Below, 4 compounds whose answers are already recorded.
COMPOUND	inhibition at 1 µM / %
COC1OC2(CCNCC2)c2cnn(-c3ccccc3)c21 (centres unmarked)	12
CCCN1CCC2(CC1)OC(OC)Cc1c2cnn1C (centres unmarked)	0
COC1Cc2c(cnn2C)C2(CCN(Cc3ccc(F)cc3)CC2)O1 (centres unmarked)	46
OC1Cc2c(cnn2-c2ccccc2)C2(CCN(Cc3ccccc3)CC2)O1 (centres unmarked)	41

For each of the compounds below, state inhibition at 1 µM.
1. CC(C)=CCN1CCC2(CC1)OCCc1c2cnn1C
2. COC1Cc2c(cnn2-c2ccccc2)C2(CCN(Cc3ccccc3)CC2)O1 (centres unmarked)
3. COC1Cc2c(cnn2-c2ccccc2)C2(CCN(CC=C(C)C)CC2)O1 (centres unmarked)
4. COC1Cc2c(cnn2C)C2(CCN(CCC(C)C)CC2)O1 (centres unmarked)
5. CC(C)CCN1CCC2(CC1)OCCc1c2cnn1C
6. Cn1ncc2c1CC(O)OC21CCN(Cc2ccccc2)CC1 (centres unmarked)

49
22
3
22
27
21

Reported inhibition at 1 µM for σ2-receptor (Rattus norvegicus), given COC1Cc2c(cnn2C)C2(CCN(Cc3ccccc3)CC2)O1 (centres unmarked) ? 0

###

# TARGET ENTITY: σ1-receptor (Cavia porcellus)
# PROCEDURE TEXT: Sigma 1 (Version B) radioligand binding, [3H]-(+)-pentazocine, guinea pig brain preparation
# Set-up: the σ1-receptor preparation was prepared from guinea pig brain; from tissue; host or cells: guinea pig brain membrane homogenate
OBSERVED PROPERTY: pKi
Numbers only, as −log10 of the molar value.

MOLECULE	pKi
COC1Cc2c(cnn2-c2ccccc2)C2(CCN(Cc3ccccc3)CC2)O1 (stereo not shown)	8.84
COc1ccc(CN2CCC3(CC2)OC(OC)Cc2c3cnn2-c2ccccc2)cc1 (stereo not shown)	8.81
OC1Cc2c(cnn2-c2ccccc2)C2(CCN(Cc3ccccc3)CC2)O1 (stereo not shown)	7.57
COC1Cc2c(cnn2-c2ccccc2)C2(CCN(Cc3ccco3)CC2)O1 (stereo not shown)	8.66
COC1Cc2c(cnn2C)C2(CCN(Cc3ccc(F)cc3)CC2)O1 (stereo not shown)	7.68

Provide pKi values for the following items, in order.
1. CCCCCCCCN1CCC2(CC1)OC(OC)Cc1c2cnn1-c1ccccc1 (stereo not shown)
2. COC1Cc2c(cnn2-c2ccccc2)C2(CCN(CCCCc3ccccc3)CC2)O1 (stereo not shown)

1. 8.54
2. 8.49

Would you be so kind as to report pKi for each listed record?
1. COC1Cc2c(cnn2C)C2(CCN(CCC(C)C)CC2)O1 (stereo not shown)
2. COC1Cc2c(cnn2-c2ccccc2)C2(CCN(Cc3ccc(F)cc3)CC2)O1 (stereo not shown)
3. COC1Cc2c(cnn2C)C2(CCN(CCCc3ccccc3)CC2)O1 (stereo not shown)
4. COC1Cc2c(cnn2-c2ccccc2)C2(CCN(CCC(C)C)CC2)O1 (stereo not shown)
5. CCCCCN1CCC2(CC1)OC(OC)Cc1c2cnn1-c1ccccc1 (stereo not shown)
6. COC1Cc2c(cnn2-c2ccccc2)C2(CCN(CCc3ccccc3)CC2)O1 (stereo not shown)
7. Cn1ncc2c1C=COC21CCN(Cc2ccccc2)CC1
8. COC1Cc2c(cnn2C)C2(CCN(Cc3ccccc3)CC2)O1 (stereo not shown)

7.75
9.03
7.03
9.01
9.09
8.56
7.93
7.67

###

Quick record: Ki, UniProt Q5U3Y7.
Answers are plain numbers, in nM.

COMPOUND	Ki / nM
CCCCCN1CCC2(CC1)OC(OC)Cc1c2cnn1-c1ccccc1 (stereo not shown)	340

Quick request: Ki for each listed item, please.
1. C1=Cc2c(cnn2-c2ccccc2)C2(CCN(Cc3ccccc3)CC2)O1
2. CCCCN1CCC2(CC1)OC(OC)c1c2cnn1-c1ccccc1 (stereo not shown)
3. COC1Cc2c(cnn2-c2ccccc2)C2(CCN(CCC(C)C)CC2)O1 (stereo not shown)
4. c1ccc(-n2ncc3c2CCOC32CCN(CC3CCCCC3)CC2)cc1
5. c1ccc(CN2CCC3(CC2)OCCc2c3cnn2-c2ccccc2)cc1

1: 557; 2: 1050; 3: 316; 4: 42.8; 5: 773

Lab note: need Ki with UniProt Q5U3Y7 for entry COC1Cc2c(cnn2-c2ccccc2)C2(CCN(CCCc3ccccc3)CC2)O1 (stereo not shown) , please look it up. 833

###

# TARGET ENTITY: σ1-receptor (Cavia porcellus, UniProt Q60492)
# Sequence (Q60492 whole entry): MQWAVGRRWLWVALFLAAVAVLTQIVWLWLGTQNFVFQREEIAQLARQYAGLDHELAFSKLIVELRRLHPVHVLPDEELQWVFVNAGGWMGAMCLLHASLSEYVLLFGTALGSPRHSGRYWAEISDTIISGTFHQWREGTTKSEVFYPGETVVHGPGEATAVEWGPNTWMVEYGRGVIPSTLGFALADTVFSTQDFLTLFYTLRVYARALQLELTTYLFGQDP
# PROCEDURE TEXT: Sigma-1 (Version A) radioligand binding, [3H](+)-pentazocine, guinea pig brain membranes
OBSERVED PROPERTY: Ki (nM)
Give bare numbers, in nM.

# annotated cases, reported Ki shown
COMPOUND	UNIT INFO	Ki
COC1Cc2c(cnn2-c2ccccc2)C2(CCN(CCCCc3ccccc3)CC2)O1 (centres unmarked)	nM	15.7
COC1Cc2c(cnn2-c2ccccc2)C2(CCN(CC=C(C)C)CC2)O1 (centres unmarked)	nM	7.3
COC1Cc2c(cnn2-c2ccccc2)C2(CCN(Cc3ccc(F)cc3)CC2)O1 (centres unmarked)	nM	7.7
COC1Cc2c(cnn2-c2ccccc2)C2(CCN(CC3CCCCC3)CC2)O1 (centres unmarked)	nM	7.9

Could you now consider this next compound?
Find the recorded Ki belonging to COC1Cc2c(cnn2-c2ccccc2)C2(CCN(CC(C)C)CC2)O1 (centres unmarked) and report it. 9.4

###

# TARGET ENTITY: σ2-receptor (Rattus norvegicus, UniProt Q5U3Y7)
# Sequence (Q5U3Y7 1-176): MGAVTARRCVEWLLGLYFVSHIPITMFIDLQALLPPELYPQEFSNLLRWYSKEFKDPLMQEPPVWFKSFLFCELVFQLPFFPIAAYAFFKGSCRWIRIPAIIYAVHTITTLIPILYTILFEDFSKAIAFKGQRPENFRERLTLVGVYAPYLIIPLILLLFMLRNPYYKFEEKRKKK
I'd appreciate it if you could supply Ki values for the items below.
Answers are plain numbers, in nM.

For orientation, consider the following solved cases.
COMPOUND	TARGET ENTITY	UNIT INFO	Ki
COC1Cc2c(cnn2-c2ccccc2)C2(CCN(Cc3ccc(F)cc3)CC2)O1 (stereo not shown) [Example 21]	σ2-receptor (Rattus norvegicus, UniProt Q5U3Y7)	nM	687
Cn1ncc2c1CCOC21CCN(Cc2ccccc2)CC1 [Example 30]	σ2-receptor (Rattus norvegicus, UniProt Q5U3Y7)	nM	191
COC1OC2(CCN(Cc3ccccc3)CC2)c2cnn(-c3ccccc3)c21 (stereo not shown) [Example 3]	σ2-receptor (Rattus norvegicus, UniProt Q5U3Y7)	nM	1750

// returns reported Ki for input COC1Cc2c(cnn2C)C2(CCN(CCCc3ccccc3)CC2)O1 (stereo not shown) [Example 24] 1730

###

# TARGET ENTITY: σ1-receptor (Cavia porcellus)
# PROCEDURE TEXT: Sigma 1 (Version B) radioligand binding, [3H]-(+)-pentazocine, guinea pig brain preparation
# Set-up: the σ1-receptor preparation was prepared from guinea pig brain; from tissue; host or cells: guinea pig brain membrane homogenate
Please go through the items and note down their pKi.
Numbers only, as −log10 of the molar value.

Here's what some known entries look like.
COMPOUND	pKi
Cn1ncc2c1CCOC21CCN(Cc2ccccc2)CC1 [Example 30]	8.04
COC1Cc2c(cnn2-c2ccccc2)C2(CCN(CC=C(C)C)CC2)O1 (stereo not shown) [Example 13]	8.79
c1ccc(CN2CCC3(CC2)OCCc2c3cnn2-c2ccccc2)cc1 [Example 34]	8.77

Field: next compound
Please give the measured pKi for this compound: Cn1ncc2c1CC(O)OC21CCN(Cc2ccccc2)CC1 (stereo not shown) [Example 28] 6.72
